Hello, the source for this data is PubChem BioAssay (NCI), in case you need it.

Test system: MALME-3M melanoma
Assay: NCI tumour cell line growth inhibition, 48 h
Quantity name: TGI

Reported TGI (MALME-3M melanoma) for entry COc1ccc2c(c1)CCCc1cn[nH]c1-2 is > 100 µM

TGI value, target or system MALME-3M melanoma, for COC(=O)C(=O)C(C(=O)C(=O)Nc1ccc(C)cc1C)c1nc2ccccc2[nH]c1=O (stereo not drawn) : > 100 µM

// assay MALME-3M melanoma, entry CNC(=O)N1CCN(C(=O)NC)CCN(C(=O)NC)CC1 , TGI value = > 100 µM

Hey, MALME-3M melanoma data for O=C(CCCSc1nc(-c2ccc(Cl)cc2)cc(-c2ccc(Cl)cc2)n1)NO : TGI came out at 11.6 µM

The measured TGI that COc1ccc(OC(=O)O[C@H]2[C@H](O[C@H]3[C@@H](O)COC(O[C@H]4C[C@H]5[C@@H]6CC=C7C[C@@H](O)CC[C@]7(C)[C@H]6CC[C@]5(C)[C@H]4[C@H](C)C(=O)CCC(C)C)[C@@H]3OC(C)=O)OC[C@@H](O)[C@@H]2O)cc1 (stereo partly drawn) showed for MALME-3M melanoma is 3.84 µM

Reading of TGI for CCOC(=O)N/N=C(/N)Cc1ccccc1 with MALME-3M melanoma: > 100 µM

Note to self: TGI of CC(C(=O)O)c1cnn(-c2ccccc2)c1-n1cccc1 (stereo not drawn) with MALME-3M melanoma was > 100 µM

TGI value, target or system MALME-3M melanoma, for O=C(NCCCNC(=O)c1ccc2cc(O)c(O)cc2c1)c1ccc2cc(O)c(O)cc2c1 : > 100 µM

Per the reported MALME-3M melanoma data, CSc1nc(Cl)c2c(n1)Sc1nc3cc4c(cc3n1C2O)OCO4 (stereo not drawn) has TGI of 63.9 µM

Query CC(=O)OCC1OC(N2C(c3ccccc3)=CC(c3ccccc3)C(C#N)=C2S)C(OC(C)=O)C(OC(C)=O)C1OC(C)=O (stereo not drawn) on MALME-3M melanoma; TGI returned: 28.3 µM

Assay MALME-3M melanoma, sample CCCN(CCCCC(NC(C)=O)C(=O)NCc1ccccc1)C(=O)N(CCCl)N=O (stereo not drawn) , TGI read: > 100 µM

Measured TGI for this entry Cc1nnc([C@@]2(C)CC[C@H]3[C@@H](CC=C4C[C@@H](O)CC[C@@]43C)[C@@H]2CC#N)o1 on MALME-3M melanoma: > 100 µM

So the reported TGI for CCCCn1c(C)c(C(=O)OCC)c2cc(OCc3ccc(C(=O)Nn4c(C)ccc4C)cc3)c(Br)cc21 , on MALME-3M melanoma, turned out to be > 100 µM

Param item: C=C(C)[C@@H](C(=O)OC)N1C(=O)c2ccccc2C1=O ; param system: MALME-3M melanoma; output TGI: > 100 µM

Form field, TGI with MALME-3M melanoma, item COc1ccc(-c2cc3c(nn2)-c2ccccc2C3=O)cc1 : > 100 µM

Bench note, MALME-3M melanoma: CN1CCC(OC(=O)Oc2ccccc2)(c2ccccc2)CC1 , TGI reads 32.5 µM

The measured TGI that CC(C)CCN=c1cc2n(-c3ccc(Cl)cc3)c3ccccc3nc-2cc1Nc1ccc(Cl)cc1 showed for MALME-3M melanoma is 31 µM

Summary line: Clc1ccc2c(NCCCCN=Cc3ccccc3)ccnc2c1 , MALME-3M melanoma, reported TGI = 27.5 µM

Entry CC(C)(C)C1=CC(=CC=C2C=CN(CCCCCCCCCCCO)C=C2)C=C(C(C)(C)C)C1=O , MALME-3M melanoma data, TGI value: 3.51 µM

Note to self: TGI of CC(=O)NCc1nc(C#N)c(N)o1 with MALME-3M melanoma was > 100 µM

Entry COc1cc(C(=O)O[C@H](C(N)=O)[C@]2(C)CO2)c2ccccc2c1 , tested on MALME-3M melanoma, has a reported TGI of 36.5 µM

I looked up COc1ccc(C(=O)O)c(Cc2cccc3ccccc23)c1 and its TGI for MALME-3M melanoma was > 100 µM

Measured TGI (MALME-3M melanoma), entry CCN(CC)C(=O)C/C(C)=N/NC(=O)c1ccncc1 : > 100 µM

Response field TGI (MALME-3M melanoma) for item Cc1cccc2c(N)c3cccc(C(=O)NCCCNCCN)c3nc12 : 19.9 µM

Measured on MALME-3M melanoma, NC(N)=N/N=C/c1c(Cl)nc2sccn12 has a documented TGI of 50.3 µM

// returns TGI for COC(=O)CCC(=O)NC1c2cccc3cccc(c23)Cn2c(=O)n(C)c(=O)n21 (stereo not drawn) with MALME-3M melanoma; value = > 100 µM

Bench note, MALME-3M melanoma: CCCN=C(NC(=O)c1ccc(Cl)cc1)SC , TGI reads > 100 µM

Record CN(C)C(=S)/N=c1\ss/c(=N\C(=S)N(C)C)n1-c1ccc2c(c1)OCO2 / MALME-3M melanoma, TGI recorded as > 100 µM

Reading of TGI for Nc1nc(Cl)cc(NCC2(CO)CC(OCc3ccccc3)C2)n1 (stereo not drawn) with MALME-3M melanoma: > 100 µM

Bench note, MALME-3M melanoma: entry CSc1ccc(C2C(Cl)C(=O)N2NC(=O)c2c(Cl)c(Cl)c(Cl)c(Cl)c2-c2nc3ccccc3[nH]2)cc1 (stereo not drawn) , its TGI = 39.5 µM

MALME-3M melanoma assay, molecule c1ccc2c(c1)nc1n2CNCC1 , recorded TGI = > 100 µM

Form: item CCOC(=O)[C@H]1Nc2ccc(C)cc2C2c3ccccc3CC21 (stereo partly drawn) ; test system MALME-3M melanoma; TGI: > 100 µM

Record COc1ccc(C2CC(=O)c3c(OC)cc(OC)cc3O2)cc1 (stereo not drawn) / MALME-3M melanoma, TGI recorded as > 100 µM

Case COc1cc2c(/C=C3/C(=O)Nc4cccc(Cl)c43)c(Cl)n(Cc3ccccc3)c2cc1C , MALME-3M melanoma, TGI recorded as 41.4 µM

Result for Cc1[nH]c(N=Nc2ccccc2)nc1N=Nc1ccccc1 , tested on MALME-3M melanoma, TGI: 8.06 µM

Bench note, MALME-3M melanoma: entry O=C(CSc1nnc(Cc2ccccc2)o1)Nc1cccc([N+](=O)[O-])c1 , its TGI = > 100 µM

Field TGI (MALME-3M melanoma), entry COc1ccc(OC)c2c1C(=O)C(Cl)=C(N1CCN(CCOCCO)CC1)C2=O : 34.9 µM

The value of TGI recorded for O=C1C2=C(CC3C(C2)C3(Br)Br)C(=O)C2=C1CC1C(C2)C1(Br)Br (stereo not drawn) when tested on MALME-3M melanoma reads > 100 µM

Noted TGI for COC(=O)C(=O)C(C(=O)C=C(C)C)C(=O)C(=O)Nc1ccc(Cl)cc1C (stereo not drawn) , tested on MALME-3M melanoma: > 100 µM

Bench note, MALME-3M melanoma: entry COc1ccc(/C(=N/Nc2ccc([N+](=O)[O-])cc2)Sc2cc(Cl)c(C)cc2S(N)(=O)=O)cc1 , its TGI = 10.1 µM

Short answer on MALME-3M melanoma for COc1ccc(OC)c(/C=C/NC=O)c1 , TGI: > 100 µM

Form field, TGI with MALME-3M melanoma, item Cn1cc(C2=C(c3cn(CCCN=C(N)N)c4ccccc34)C(=O)NC2=O)c2ccccc21 : > 25 µM

Hey, MALME-3M melanoma data for O=C1c2ccccc2S[C@@H](O)[C@@H]2CCCN12 : TGI came out at > 100 µM

====

System: SF-295 CNS
Assay: NCI tumour cell line growth inhibition, 48 h
Where a SMILES comes first, the peptide text is derived from it. Bridges are numbered along the chain shown (N, C = ends). [ ]: non-standard residue; d: D form. The star is where a group is joined. Cbz = O=C(OCc1ccccc1)*; Aib = CC(C)(N)C(=O)O; OBn = c1ccc(CO*)cc1; βAla = NCCC(=O)O
Quantity name: TGI

Reported TGI for COc1ccc2c(c1)CCCc1cn[nH]c1-2 was > 100 µM

Looking up Oc1ccc2ccccc2c1N=Nc1ccc(F)cc1 , I found its TGI recorded as > 100 µM

Per the record, COc1ccc(OC(=O)O[C@H]2[C@H](O[C@H]3[C@@H](O)COC(O[C@H]4C[C@H]5[C@@H]6CC=C7C[C@@H](O)CC[C@]7(C)[C@H]6CC[C@]5(C)[C@H]4[C@H](C)C(=O)CCC(C)C)[C@@H]3OC(C)=O)OC[C@@H](O)[C@@H]2O)cc1 (some centres not stated) has TGI of 0.0193 µM

Looking up COc1ccc(C(=O)O)c(Cc2cccc3ccccc23)c1 , I found its TGI recorded as > 100 µM

Notebook: O=C(O)C(Sc1ccc(Cl)cc1)Sc1ccc(Cl)cc1 , TGI read as > 100 µM

Entry CSc1ccc(C2C(Cl)C(=O)N2NC(=O)c2c(Cl)c(Cl)c(Cl)c(Cl)c2-c2nc3ccccc3[nH]2)cc1 (configuration not stated) — recorded TGI = > 100 µM

Entry Cc1ccc2nc3ccccc3c(C3C4C(=O)N(c5ccc(Br)cc5Cl)C(=O)C4ON3C(C(N)=O)c3ccccc3)c2c1 (configuration not stated) ; TGI = > 25 µM

Form field TGI, entry COc1cc2c(/C=C3/C(=O)Nc4cccc(Cl)c43)c(Cl)n(Cc3ccccc3)c2cc1C : 21.2 µM

Measured TGI, O=C(CCCSc1nc(-c2ccc(Cl)cc2)cc(-c2ccc(Cl)cc2)n1)NO : 6.9 µM

GET /value?item= NC(N)=N/N=C/c1c(Cl)nc2sccn12 &field=TGI returns 44.1 µM

GET /value?item= O=P(O)(O)CN1CCN(CP(=O)(O)O)CCN(CP(=O)(O)O)CCN(CP(=O)(O)O)CC1 &field=TGI returns > 100 µM

Briefly, TGI measured for COC(=O)C(=O)C(C(=O)C=C(C)C)C(=O)C(=O)Nc1ccc(Cl)cc1C (configuration not stated) : > 100 µM

Entry Cc1cc(=O)[nH]c(NNC(C#N)c2ccc(O)cc2)n1 (configuration not stated) ; TGI = > 100 µM

// N#CCCN(CCC#N)c1ccc(/C=C2\N=C(CN3C(=O)c4ccccc4C3=O)OC2=O)cc1 : TGI value = > 100 µM

Sure, the documented TGI for CC(=O)OCC1OC(N2C(c3ccccc3)=CC(c3ccccc3)C(C#N)=C2S)C(OC(C)=O)C(OC(C)=O)C1OC(C)=O (configuration not stated) is 10.1 µM

Form field TGI, entry CC(=O)NC(CCCN)C(=O)NCc1ccccc1 (configuration not stated) : > 100 µM

For reference, reported TGI for C1=C2C3=[N+](CCCC3)CC2Cc2ccsc21 (configuration not stated) stands at > 100 µM

Short answer for CCOC(=O)C(Cl)(NC(=O)c1ccc(F)cc1)C(F)(F)F (configuration not stated) : TGI was > 100 µM

The reported value for COc1cc2c3c(n(CCCBr)c(=O)c2cc1OC)-c1ccc(NC(C)=O)cc1C3=O in terms of TGI is 11.5 µM

Form field TGI, entry CC(=O)NCc1nc(C#N)c(N)o1 : > 100 µM

Data point: N#C/C(C(=S)Nc1ccccc1)=C1/NN=C2c3ccccc3C(=O)NN21 ; TGI = 49.5 µM

Lab note: Cc1nc(N)c(N2CCNCC2)c(=O)[nH]1 gave TGI of > 100 µM

Lab book: TGI of Cn1c(=O)c2c(nc(NCCCCl)n2CC(=O)NCCCCl)n(C)c1=O noted as > 100 µM

Looking up Cc1cc(O)c(/C=N/C(=S)NCCc2ccccc2)c(=O)o1 , I found its TGI recorded as > 100 µM

# compound COC(=O)CSc1n[nH]c(-c2ccc(O)c([N+](=O)[O-])c2)n1 ; its TGI = > 100 µM

Form: compound = C=C1CC[C@@]2(OC1)OC1C[C@H]3[C@@H]4CC=C5C[C@@H](O)CC(OC6OCC(OC(=O)[C@@H](O)[C@@H](C)CC)C(OC(C)=O)C6OC6OC(C)C(O)C(O)C6O)[C@]5(C)[C@H]4CC[C@]3(C)C1[C@@H]2C (some centres not stated) ; TGI = 3.27 µM

Short answer for CC1(C)NC(=O)C(NC(=O)C(CC(=O)OCc2ccccc2)NC(=O)OCc2ccccc2)CCCCNC(=O)CCNC1=O (configuration not stated) (Cbz-D(OBn)K[Aib][βAla]; lactam 2-C; configuration not given here) : TGI was > 100 µM

Consider CCOC(=O)NC(Nc1ccc(S(=O)(=O)Nc2ncccn2)cc1)(C(=O)OCC)C(F)(F)F (configuration not stated) . Its measured TGI is > 100 µM

According to the records, this compound COc1ccc(-c2c(C(C)=O)c(-c3ccccc3)n(C3OC(COC(C)=O)C(OC(C)=O)C(OC(C)=O)C3OC(C)=O)c(=S)c2C#N)cc1 (configuration not stated) displays TGI of > 100 µM

compound COc1ccc(-n2c(SCc3cc(OC)c(OC)c(OC)c3)nc3ccc(C)cc3c2=O)cc1 , TGI observed: > 100 µM

// TGI value for COc1ccc(OC)c2c1C(=O)C(Cl)=C(N1CCN(CCOCCO)CC1)C2=O : 32.9 µM

// recorded TGI for NCC(=O)NC(CCCC(NC(=O)CN)P(=O)(O)O)P(=O)(O)O (configuration not stated) : > 100 µM

Record O=[N+]([O-])c1ccccc1N=Nc1c(O)sc2ccccc12 . Reported TGI: > 100 µM

TGI for COc1ccc(S(=O)(=O)N(Cc2ccc3c(n2)C=CC(C)(C)O3)C2CCC2)cc1OC is 0.542 µM

Field TGI (entry CC[N+](C)(CC)Cc1ccccc1[N+](=O)[O-] ) reads > 100 µM

For Cc1cc(C)cc(Nc2nnc3n2S(=O)(=O)c2cc(C#N)c(Cl)cc2S3)c1 the compound record lists TGI as 9.2 µM

According to the records, this compound CCOC(=O)c1c(SC(=O)/C=C/c2ccccc2)n(-c2ccccc2)c(=S)n(-c2ccccc2)c1=O displays TGI of > 100 µM
